# measurement-target: VRK1 (human) (UniProt Q99986)
# Sequence (Q99986 whole entry, looked up): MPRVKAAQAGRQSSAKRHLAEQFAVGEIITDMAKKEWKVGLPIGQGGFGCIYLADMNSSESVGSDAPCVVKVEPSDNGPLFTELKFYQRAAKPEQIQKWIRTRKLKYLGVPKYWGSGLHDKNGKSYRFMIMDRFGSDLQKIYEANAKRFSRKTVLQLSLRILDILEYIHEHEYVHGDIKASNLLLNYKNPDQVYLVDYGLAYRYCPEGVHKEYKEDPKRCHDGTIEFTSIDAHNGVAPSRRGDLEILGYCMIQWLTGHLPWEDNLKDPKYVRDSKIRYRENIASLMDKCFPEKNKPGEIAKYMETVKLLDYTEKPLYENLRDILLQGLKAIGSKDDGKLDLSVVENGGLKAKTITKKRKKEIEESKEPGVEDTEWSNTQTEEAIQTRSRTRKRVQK
# experiment: radiometric filter-binding kinase assay, Kinase HotSpot
# test-conditions: compound 0.5 µM; ATP 10 µM
readout-name: residual activity (%)
Report only the number, with the unit % understood.

Below: 8 compounds and their reported residual activity.
{"input-smiles": "CNc1cc2c(Nc3cccc(Br)c3)ncnc2cn1", "measurement-target": "VRK1 (human) (UniProt Q99986)", "value": 90.2}
{"input-smiles": "Nc1ncnc2c1c(-c1ccc(Oc3ccccc3)cc1)cn2C1CCCC1", "measurement-target": "VRK1 (human) (UniProt Q99986)", "value": 84.8}
{"input-smiles": "CCC(=O)Nc1ccc2ncnc(Nc3cccc(Br)c3)c2c1", "measurement-target": "VRK1 (human) (UniProt Q99986)", "value": 94.4}
{"input-smiles": "O=C1NC(=O)/C(=C/c2ccc3c(c2)OC(F)(F)O3)S1", "measurement-target": "VRK1 (human) (UniProt Q99986)", "value": 85.6}
{"input-smiles": "Cc1[nH]c(/C=C2\\C(=O)Nc3ccc(S(=O)(=O)N(C)c4cccc(Cl)c4)cc32)c(C)c1C(=O)N1CCN(C)CC1", "measurement-target": "VRK1 (human) (UniProt Q99986)", "value": 87.3}
{"input-smiles": "O=C(Nc1cccc(Nc2nccc(Nc3cccc(C(F)(F)F)c3)n2)c1)C1CC1", "measurement-target": "VRK1 (human) (UniProt Q99986)", "value": 88.2}
{"input-smiles": "CC#CC(=O)Nc1cc2c(Nc3ccc(F)c(Cl)c3)ncnc2cn1", "measurement-target": "VRK1 (human) (UniProt Q99986)", "value": 87.8}
{"input-smiles": "CC(=O)c1ccc(N2CCOCC2)cc1O", "measurement-target": "VRK1 (human) (UniProt Q99986)", "value": 98.1}

GET residual activity where system = VRK1 (human) (UniProt Q99986) and item = CCN(CC)CCNC(=O)c1c(C)[nH]c(/C=C2\C(=O)Nc3ccc(Cl)cc32)c1C 90.7

State measured residual activity of the compound O=C1Nc2ccc(Cl)cc2/C1=C/c1cc(Cl)c(O)c(Cl)c1 with VRK1 (human) (UniProt Q99986). 80.6

Please respond with reported residual activity (system VRK1 (human) (UniProt Q99986)) for CCN(CC)CCNC(=O)c1c(C)[nH]c(/C=C2\C(=O)Nc3ccc(F)cc32)c1C . 97.3

====

# measurement-target: EPHA5 (human) (UniProt P54756)
# Sequence (P54756 whole entry, looked up): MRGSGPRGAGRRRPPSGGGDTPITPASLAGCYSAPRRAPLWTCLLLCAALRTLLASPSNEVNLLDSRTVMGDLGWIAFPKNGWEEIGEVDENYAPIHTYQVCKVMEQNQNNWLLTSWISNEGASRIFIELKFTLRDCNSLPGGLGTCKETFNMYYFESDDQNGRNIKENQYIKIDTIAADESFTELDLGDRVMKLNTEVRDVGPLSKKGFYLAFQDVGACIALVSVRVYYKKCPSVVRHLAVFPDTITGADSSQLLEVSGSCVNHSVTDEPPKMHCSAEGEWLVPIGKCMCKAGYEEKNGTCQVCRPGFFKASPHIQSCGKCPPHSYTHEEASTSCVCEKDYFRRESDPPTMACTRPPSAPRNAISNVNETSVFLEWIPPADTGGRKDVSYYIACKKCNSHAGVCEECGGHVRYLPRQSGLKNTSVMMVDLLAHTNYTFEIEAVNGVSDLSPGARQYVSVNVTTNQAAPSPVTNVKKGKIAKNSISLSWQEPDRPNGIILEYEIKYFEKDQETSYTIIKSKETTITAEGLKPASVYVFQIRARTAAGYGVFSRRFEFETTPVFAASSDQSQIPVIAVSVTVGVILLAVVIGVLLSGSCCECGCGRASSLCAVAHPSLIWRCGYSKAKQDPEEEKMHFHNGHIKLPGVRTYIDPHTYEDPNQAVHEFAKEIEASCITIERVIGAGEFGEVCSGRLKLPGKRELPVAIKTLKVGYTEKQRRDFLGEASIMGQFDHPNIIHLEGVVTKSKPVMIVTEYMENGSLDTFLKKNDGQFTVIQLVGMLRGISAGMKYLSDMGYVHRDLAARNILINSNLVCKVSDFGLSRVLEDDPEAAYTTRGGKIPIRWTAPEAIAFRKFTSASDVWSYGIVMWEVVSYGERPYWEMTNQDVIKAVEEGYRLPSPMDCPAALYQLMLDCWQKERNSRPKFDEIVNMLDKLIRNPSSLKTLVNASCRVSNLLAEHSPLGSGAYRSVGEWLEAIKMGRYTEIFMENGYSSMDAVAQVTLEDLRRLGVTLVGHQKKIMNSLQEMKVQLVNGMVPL
# experiment: radiometric filter-binding kinase assay, Kinase HotSpot
# test-conditions: compound 0.5 µM; ATP 10 µM
readout-name: residual activity (%)
The answer is to be given in %; state only the numeric part.

{"input-smiles": "O=C1NC(=O)C(c2cn(CCCn3ccnc3)c3ccccc23)=C1Nc1ccccc1", "readout-name": "residual activity", "value": 96.1}

Given the compound Nc1ncnc2[nH]nc(Nc3ccc(F)cc3)c12 , write its reported residual activity. 87

Indicate the recorded residual activity value for this compound: CC#CC(=O)Nc1cc2c(Nc3ccc(F)c(Cl)c3)ncnc2cn1 101

====

Quick reference: residual activity of the listed items.
# measurement-target: MAP4K5 (human)
# experiment: radiometric filter-binding kinase assay, Kinase HotSpot
# test-conditions: compound 0.5 µM; ATP 10 µM
// return the numeric value with its unit appended

{"input-smiles": "CNC(=O)c1cc(Oc2ccc(NC(=O)Nc3ccc(Cl)c(C(F)(F)F)c3)cc2)ccn1", "measurement-target": "MAP4K5 (human)", "residual activity": "57%"}
{"input-smiles": "CCCC(=O)Oc1ccc2[nH]c(C(=O)c3cc4ccccc4[nH]3)cc2c1", "measurement-target": "MAP4K5 (human)", "residual activity": "88%"}
{"input-smiles": "O=C(Nc1cccc(Nc2nccc(Nc3cccc(C(F)(F)F)c3)n2)c1)C1CC1", "measurement-target": "MAP4K5 (human)", "residual activity": "94.9%"}
{"input-smiles": "O=C1NC(=O)c2c1c1c3ccccc3n3c1c1c2c2ccccc2n1C1CCC3O1", "measurement-target": "MAP4K5 (human)", "residual activity": "2.69%"}
{"input-smiles": "COc1cc2ncnc(Nc3cccc(Cl)c3)c2cc1OC", "measurement-target": "MAP4K5 (human)", "residual activity": "59.5%"}
{"input-smiles": "CCC(=O)Nc1ccc2ncnc(Nc3cccc(Br)c3)c2c1", "measurement-target": "MAP4K5 (human)", "residual activity": "89%"}
{"input-smiles": "Nc1ncnc2[nH]nc(Nc3ccc(F)cc3)c12", "measurement-target": "MAP4K5 (human)", "residual activity": "52%"}
{"input-smiles": "CC(C)N(CCC(=O)c1ccc2ccccc2c1)Cc1ccccc1", "measurement-target": "MAP4K5 (human)", "residual activity": "90.2%"}

Specify measured residual activity for O=C1NC(=O)/C(=C/c2ccc3c(c2)OC(F)(F)O3)S1 . 88.1%

Quick one: give measured residual activity for COc1ccc(COc2ccc(Cc3cnc(N)nc3N)cc2OC)cc1 97.4%

Identify measured residual activity associated with CC(=O)c1ccc(N2CCOCC2)cc1O 102%

====

# measurement-target: MERTK (human) (UniProt Q12866)
# Sequence (Q12866 whole entry, looked up): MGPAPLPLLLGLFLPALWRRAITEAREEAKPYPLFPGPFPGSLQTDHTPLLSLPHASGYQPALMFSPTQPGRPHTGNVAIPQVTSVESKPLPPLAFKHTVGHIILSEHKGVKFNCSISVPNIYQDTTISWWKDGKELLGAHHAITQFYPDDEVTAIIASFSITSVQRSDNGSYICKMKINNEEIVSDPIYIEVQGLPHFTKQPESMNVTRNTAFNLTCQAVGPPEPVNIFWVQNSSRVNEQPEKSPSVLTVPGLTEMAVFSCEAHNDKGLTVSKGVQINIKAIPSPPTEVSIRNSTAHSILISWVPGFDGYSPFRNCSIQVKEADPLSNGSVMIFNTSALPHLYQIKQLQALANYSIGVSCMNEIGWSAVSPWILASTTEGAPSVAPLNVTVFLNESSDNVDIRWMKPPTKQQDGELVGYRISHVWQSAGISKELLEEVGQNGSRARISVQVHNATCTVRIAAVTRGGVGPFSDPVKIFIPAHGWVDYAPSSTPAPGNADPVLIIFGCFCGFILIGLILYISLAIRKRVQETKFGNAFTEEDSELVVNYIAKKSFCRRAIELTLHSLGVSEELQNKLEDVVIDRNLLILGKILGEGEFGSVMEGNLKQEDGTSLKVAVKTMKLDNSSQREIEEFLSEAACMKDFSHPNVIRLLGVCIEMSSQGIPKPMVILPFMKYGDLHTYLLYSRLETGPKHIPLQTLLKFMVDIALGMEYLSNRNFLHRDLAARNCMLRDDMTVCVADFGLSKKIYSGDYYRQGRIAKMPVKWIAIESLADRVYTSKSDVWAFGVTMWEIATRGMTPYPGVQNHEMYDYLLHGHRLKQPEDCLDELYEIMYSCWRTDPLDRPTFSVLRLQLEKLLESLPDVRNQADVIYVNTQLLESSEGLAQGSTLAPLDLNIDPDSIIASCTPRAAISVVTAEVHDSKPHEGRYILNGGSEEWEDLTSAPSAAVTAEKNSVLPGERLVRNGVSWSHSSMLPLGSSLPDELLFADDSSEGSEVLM
# experiment: radiometric filter-binding kinase assay, Kinase HotSpot
# test-conditions: compound 0.5 µM; ATP 10 µM
readout-name: residual activity (%)
Express it in %; write the number only.

{"molecule": "N#CC(C#N)=C(N)/C(C#N)=C/c1ccc(O)cc1", "value": 93.5}
{"molecule": "CCCC(=O)Oc1ccc2[nH]c(C(=O)c3cc4ccccc4[nH]3)cc2c1", "value": 96.7}
{"molecule": "O=C1NC(=O)/C(=C/c2ccc3c(c2)OC(F)(F)O3)S1", "value": 94.5}
{"molecule": "CNC(=O)c1cc(Oc2ccc(NC(=O)Nc3ccc(Cl)c(C(F)(F)F)c3)cc2)ccn1", "value": 88.2}
{"molecule": "O=C(Nc1cccc(Nc2nccc(Nc3cccc(C(F)(F)F)c3)n2)c1)C1CC1", "value": 90.1}

Return value of residual activity for input CO[C@H]1CC2CC[C@@H](C)[C@@](O)(O2)C(=O)C(=O)N2CCCC[C@H]2C(=O)OC([C@H](C)C[C@@H]2CC[C@@H](O)[C@H](OC)C2)CC(=O)[C@H](C)/C=C(\C)[C@@H](O)[C@@H](OC)C(=O)[C@H](C)C[C@H](C)/C=C/C=C/C=C/1C (some centres undefined) , no commentary. 90.9

In one line, give reported residual activity of the entry c1ccc(-c2n[nH]cc2-c2ccnc3ccccc23)nc1 . 92.6

Entry COc1ccc2c(c[n+](C)c3c4cc5c(cc4ccc23)OCO5)c1OC needs its residual activity filled in; supply it. 90.8

Give the measured residual activity for Nc1ccc2ncnc(NCCc3ccc(Oc4ccccc4)cc3)c2c1 102

====

# measurement-target: CDK2 CCNE1 (human) (UniProt P24941+P24864)
# Sequence (P24864 whole entry, looked up, other chains not shown): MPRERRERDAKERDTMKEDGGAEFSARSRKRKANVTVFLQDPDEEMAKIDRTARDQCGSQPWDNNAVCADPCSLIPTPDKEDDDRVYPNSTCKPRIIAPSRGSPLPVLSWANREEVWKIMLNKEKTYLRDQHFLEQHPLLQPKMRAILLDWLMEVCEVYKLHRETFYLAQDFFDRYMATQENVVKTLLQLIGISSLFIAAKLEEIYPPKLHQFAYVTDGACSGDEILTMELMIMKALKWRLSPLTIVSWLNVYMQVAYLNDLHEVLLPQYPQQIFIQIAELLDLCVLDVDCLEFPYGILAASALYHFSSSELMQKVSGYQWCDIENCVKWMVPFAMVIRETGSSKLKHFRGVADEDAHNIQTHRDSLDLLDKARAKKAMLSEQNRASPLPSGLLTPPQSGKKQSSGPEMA
# experiment: radiometric filter-binding kinase assay, Kinase HotSpot
# test-conditions: compound 0.5 µM; ATP 10 µM
residual activity values by entry

{"compound": "O=c1cc(N2CCOCC2)oc2c1ccc1ccccc12", "measurement-target": "CDK2 CCNE1 (human) (UniProt P24941+P24864)", "residual activity": "119%"}

Give residual activity for O=C1NC(=O)c2c1c1c3ccccc3n3c1c1c2c2ccccc2n1C1CCC3O1 28.5%

Fill in residual activity for record CCN(CC)C(=O)c1ccc(Nc2nc(OCC3CCCCC3)c3nc[nH]c3n2)cc1 76.5%

Please supply the value of reported residual activity for the item CO[C@H]1CC2CC[C@@H](C)[C@@](O)(O2)C(=O)C(=O)N2CCCC[C@H]2C(=O)OC([C@H](C)C[C@@H]2CC[C@@H](O)[C@H](OC)C2)CC(=O)[C@H](C)/C=C(\C)[C@@H](O)[C@@H](OC)C(=O)[C@H](C)C[C@H](C)/C=C/C=C/C=C/1C (stereo partly drawn) 91.3%

Annotate the compound Cc1nc(Nc2ncc(C(=O)Nc3c(C)cccc3Cl)s2)cc(N2CCN(CCO)CC2)n1 with its measured residual activity. 95.9%

Give residual activity for the following compound: CCCC(=O)Oc1ccc2[nH]c(C(=O)c3cc4ccccc4[nH]3)cc2c1 92.1%

For CCN(CC)CCNC(=O)c1c(C)[nH]c(/C=C2\C(=O)Nc3ccc(Cl)cc32)c1C , write its residual activity. 90%

Output measured residual activity for this item: CCC(=O)Nc1ccc2ncnc(Nc3cccc(Br)c3)c2c1 84.9%

====

# measurement-target: UniProtKB P54753
# Sequence (P54753 whole entry, looked up): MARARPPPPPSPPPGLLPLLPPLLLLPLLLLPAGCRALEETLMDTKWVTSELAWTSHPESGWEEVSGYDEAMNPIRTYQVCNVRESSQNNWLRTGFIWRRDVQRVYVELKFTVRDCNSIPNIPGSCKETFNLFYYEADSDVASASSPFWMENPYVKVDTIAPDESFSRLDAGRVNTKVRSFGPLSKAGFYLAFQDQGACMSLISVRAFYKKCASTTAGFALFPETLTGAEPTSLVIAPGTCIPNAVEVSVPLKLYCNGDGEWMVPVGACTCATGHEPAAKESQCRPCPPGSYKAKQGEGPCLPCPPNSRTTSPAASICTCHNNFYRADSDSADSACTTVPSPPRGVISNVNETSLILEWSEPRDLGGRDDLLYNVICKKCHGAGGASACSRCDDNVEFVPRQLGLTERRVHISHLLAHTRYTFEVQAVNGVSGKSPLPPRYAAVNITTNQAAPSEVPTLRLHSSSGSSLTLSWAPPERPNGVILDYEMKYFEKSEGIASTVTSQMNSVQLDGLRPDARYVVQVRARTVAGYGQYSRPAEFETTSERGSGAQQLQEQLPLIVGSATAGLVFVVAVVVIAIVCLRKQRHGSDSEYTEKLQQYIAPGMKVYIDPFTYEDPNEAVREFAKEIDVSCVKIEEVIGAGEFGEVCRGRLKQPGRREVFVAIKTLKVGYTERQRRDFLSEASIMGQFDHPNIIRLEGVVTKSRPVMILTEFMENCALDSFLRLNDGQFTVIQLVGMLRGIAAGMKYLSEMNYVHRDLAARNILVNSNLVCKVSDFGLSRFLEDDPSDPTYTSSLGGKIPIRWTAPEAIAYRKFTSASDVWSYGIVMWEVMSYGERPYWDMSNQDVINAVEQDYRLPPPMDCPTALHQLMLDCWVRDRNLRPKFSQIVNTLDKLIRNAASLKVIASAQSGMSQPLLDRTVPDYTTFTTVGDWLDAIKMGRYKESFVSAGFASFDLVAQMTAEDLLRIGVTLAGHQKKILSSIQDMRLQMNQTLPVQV
# experiment: radiometric filter-binding kinase assay, Kinase HotSpot
# test-conditions: compound 0.5 µM; ATP 10 µM
readout-name: residual activity (%)
Numeric answer only, unit % assumed.

Consider the reported residual activity for these compounds:
{"compound": "CCN(CC)CCNC(=O)c1c(C)[nH]c(/C=C2\\C(=O)Nc3ccc(Cl)cc32)c1C", "value": 100}
{"compound": "CO[C@H]1CC2CC[C@@H](C)[C@@](O)(O2)C(=O)C(=O)N2CCCC[C@H]2C(=O)OC([C@H](C)C[C@@H]2CC[C@@H](O)[C@H](OC)C2)CC(=O)[C@H](C)/C=C(\\C)[C@@H](O)[C@@H](OC)C(=O)[C@H](C)C[C@H](C)/C=C/C=C/C=C/1C (some centres undefined)", "value": 103}

Give the value of residual activity reported for the following: COc1ccc(COc2ccc(Cc3cnc(N)nc3N)cc2OC)cc1 91.8

Answer with reported residual activity of O=C1Nc2ccc(Cl)cc2/C1=C/c1cc(Cl)c(O)c(Cl)c1 91

Tell me measured residual activity for CCC(=O)Nc1ccc2ncnc(Nc3cccc(Br)c3)c2c1 please. 89.4

# return recorded residual activity for entry CC[n+]1c(/C=C/N(C)c2ccccc2)n(-c2ccccc2)c2ccc(-c3nc4ccccc4s3)cc21 102

Please supply the value of reported residual activity for the item Nc1ncnc2c1c(-c1ccc(Oc3ccccc3)cc1)cn2C1CCCC1 93.4

Consider the compound c1ccc(-c2n[nH]cc2-c2ccnc3ccccc23)nc1 and give its recorded residual activity. 97.1

Provide one value: measured residual activity of O=S(=O)(c1cccc2cnccc12)N1CCCNCC1 95.4
